- protocol.description: intraperitoneal pharmacokinetics in male SD rats (plasma and brain)
- Type: in vivo, rat
- reported.conditions: rat, 10 mg/kg ip, brain/plasma
- Method: FIG. 2 is a graph showing intraperitoneal pharmacokinetics of a compound of the present invention in male SD rats (N=3); Formulation: 10% tween 80 microsuspension; Dose: 10 mg/kg; Time points: 0.5 h, 1 h, 2 h, 4 h & 8 h; data are summarized in Table 1 and Table 2. […] Additionally, certain exemplary disclosed compounds were evaluated for pharmacokinetic efficacy.
readout.kind: Log BB
Numbers only.

[in] Check the records and state Log BB for O=C(Nc1ccc(N2S(=O)(=O)c3ccccc3S2(=O)=O)cc1)C1CCCCC1 [drawing 138]
[out] 0.26

----------
- protocol.description: intraperitoneal pharmacokinetics in male SD rats (plasma and brain)
- Assay type: in vivo, rat
- reported.conditions: rat, 10 mg/kg ip, plasma, read-out: Elimination T1/2 Plasma (converted)
readout.kind: half-life (h)
Numbers only, in h.

Below are worked cases with known answers.
- molecule: "O=C(Nc1ccc(N2S(=O)(=O)c3ccccc3S2(=O)=O)cc1)c1ccccc1 [drawing 139]"
  reading.unit: "h"
  half-life: 1.21
- molecule: "O=C(Nc1ccc(N2S(=O)(=O)c3ccccc3S2(=O)=O)cc1)C1CCCCC1 [drawing 138]"
  reading.unit: "h"
  half-life: 1.67

Now consider a different molecule.
[in] Check the records and state half-life for O=C(Nc1ccc(N2S(=O)(=O)c3ccccc3S2(=O)=O)cc1)c1ccco1 [drawing 140]
[out] 2.39

----------
- protocol.description: intraperitoneal pharmacokinetics in male SD rats (plasma and brain)
- Assay type: in vivo, rat
- reported.conditions: rat, 10 mg/kg ip, plasma, 0-8 h
So I've got a bunch of compounds here, and I need their AUC(0-t) values.
Answers are plain numbers, in ng·h/mL.

Below are worked cases with known answers.
- compound: "O=C(Nc1ccc(N2S(=O)(=O)c3ccccc3S2(=O)=O)cc1)c1ccco1 [drawing 140]"
  readout.kind: "AUC(0-t)"
  reported.measurement: 20500
- compound: "O=C(Nc1ccc(N2S(=O)(=O)c3ccccc3S2(=O)=O)cc1)c1ccccc1 [drawing 139]"
  readout.kind: "AUC(0-t)"
  reported.measurement: 3280

[in] Check the records and state AUC(0-t) for O=C(Nc1ccc(N2S(=O)(=O)c3ccccc3S2(=O)=O)cc1)C1CCCCC1 [drawing 138]
[out] 3400

----------
- protocol.description: intraperitoneal pharmacokinetics in male SD rats (plasma and brain)
- Assay type: in vivo, rat
- reported.conditions: rat, 10 mg/kg ip, plasma
readout.kind: Cmax

- compound: "O=C(Nc1ccc(N2S(=O)(=O)c3ccccc3S2(=O)=O)cc1)C1CCCCC1 [drawing 138]"
  Cmax: "1930 ng/mL"
- compound: "O=C(Nc1ccc(N2S(=O)(=O)c3ccccc3S2(=O)=O)cc1)c1ccccc1 [drawing 139]"
  Cmax: "1470 ng/mL"

Now consider a different compound.
[in] Check the records and state Cmax for O=C(Nc1ccc(N2S(=O)(=O)c3ccccc3S2(=O)=O)cc1)c1ccco1 [drawing 140]
[out] 5690 ng/mL

----------
- experimental.system: UniProt:Q14833
- protocol.description: mGluR4 potentiation assay (activity table; fluorescence plate reader, compound then EC20 agonist)
- Format: cell-based
- reported.conditions: maximum extent of potentiation, % GluMax
readout.kind: % GluMax (%)
Answers are plain numbers, in %.

- compound: "O=C(Nc1ccccn1)c1ccc(N2S(=O)(=O)c3ccccc3S2(=O)=O)cc1"
  % GluMax, %: 39
- compound: "O=C(Nc1ccc(N2S(=O)(=O)c3ccccc3S2(=O)=O)cc1)c1ccccn1"
  % GluMax, %: 254
- compound: "O=C(Nc1ccc(N2S(=O)(=O)c3ccccc3S2(=O)=O)cc1)c1ccncn1"
  % GluMax, %: 247
- compound: "O=C(Nc1ccc(N2S(=O)(=O)c3ccccc3S2(=O)=O)cc1)c1cccc(F)n1"
  % GluMax, %: 198
- compound: "O=C(Nc1ccc(N2S(=O)(=O)c3ccccc3S2(=O)=O)cc1F)c1ccco1"
  % GluMax, %: 125
- compound: "O=C(Nc1ccc(N2S(=O)(=O)c3ccccc3S2(=O)=O)cc1)c1ncccc1F"
  % GluMax, %: 69

Hello, I would appreciate it if you could give % GluMax for each entry below.
1. O=C(Nc1ccc(N2S(=O)(=O)c3ccccc3S2(=O)=O)cc1)C1CCCCO1 (centres unmarked)
2. O=C(Nc1ccc(N2S(=O)(=O)c3ccccc3S2(=O)=O)cc1)c1nccs1

[out]
1. 166
2. 216
